Assign INHIBITION to each entry below.
- Test system: Plasmodium berghei
- assay.procedure: Screen against P. berghei liver stage (PbLuc), transformed with Luciferase, at 10uM
- Assay type: functional, HepG2
- condition.details: tested at 10 uM
About 8,600 (12%) of roughly 69,000 compounds showed an effect of 50% or more. The full list was thinned out, with strong results kept by preference.

CNC(=O)C1(C)CN(S(=O)(=O)c2cccc(OC)c2)CCO1 (configuration not stated) | 11.175%

State the recorded INHIBITION for every item in the following list.
1. CCc1ccccc1NC(=O)c1cnn(C)c1C
2. CCC1c2cccn2CCN1C(=O)c1ccno1 (configuration not stated)
3. COCCN(Cc1ccc(F)cc1Cl)C(=O)c1cc(C)n[nH]1
4. CCn1ncc2c(C(F)(F)F)cc(-c3cnn(C)c3)nc21
5. COCCN(Cc1ccc(F)cc1Cl)C(=O)c1csnn1
6. COc1ccc(NC(=O)c2nc3ccccc3n(C)c2=O)c(OC)c1

1: 21.5%; 2: -48.4%; 3: 32.5%; 4: 19.55%; 5: 39.5%; 6: 3.19%

Your task in this section: give INHIBITION for each listed record.
1. CCCN(CCC)C(=O)c1sc(C)nc1C
2. COCCN(Cc1ccccc1)C(=O)c1cnn(C)c1C
3. Cc1ccc(OCCC(=O)NC2CCc3nc(C)cn3C2)cc1 (configuration not stated)
4. COCCN(Cc1ccc(F)cc1Cl)C(=O)c1ccncc1
5. CCOCc1cnc2n1CCN(Cc1cccs1)C2C (configuration not stated)

-3.14%
81.5%
5.53%
21%
-10.5%

====

- Test system: Plasmodium berghei
- assay.procedure: Screen against P. berghei liver stage (PbLuc), transformed with Luciferase, at 10uM
- Type: functional, HepG2
- condition.details: tested at 10 uM
Screen size: about 69,000 compounds; about 8,600 (12%) showed an effect of 50% or more. The entries come from a sample that favours strong results as a whole.
Please assign label 0 whenever INHIBITION is at or above 30%, and label 1 whenever it is below.

O=C(c1ccccc1)N1C[C@@H]2CCCO[C@@H]2[C@H](N2CCOCC2)C1 | label 0
CO[C@@H]1CC[C@H]2[C@H]1OCCN2C(=O)c1ccc(C)nc1 | label 0
Cc1cccc(C(=O)N2CCO[C@H]3[C@H](OCCN(C)C)CC[C@@H]32)n1 | label 0
Cc1ccccc1C(=O)N1CCO[C@H]2[C@H](OCCN(C)C)CC[C@@H]21 | label 1

Record Cn1nc(C(=O)N2CCCC2)c2c1CN(CC1CCOCC1)C2 : is its INHIBITION strictly below 30%?
label 1

Please let me know if CO[C@H]1CC[C@H]2[C@H]1OCCN2C(=O)c1ccc(C)nc1 shows INHIBITION below 30%.
label 1

A record lists Cc1cccc(OCCNC(=O)Cn2ccc(C)cc2=O)c1 . Is its INHIBITION below 30%?
label 1

====

- Test system: Plasmodium berghei
- assay.procedure: Screen against P. berghei liver stage (PbLuc), transformed with Luciferase, at 10uM
- Assay type: functional, HepG2
- condition.details: tested at 10 uM
About 8,600 (12%) of roughly 69,000 compounds showed an effect of 50% or more. The sample holds strong results, similar compounds and a random draw of the others, so the mix is not that of the screen.
property.measured: INHIBITION (%)
Give bare numbers, in %.

N[C@H]1CCCN(C(=O)c2cnc(COc3ccccc3)nc2O)C1 | -58
O=C(O)c1c(-c2cccnc2)ncc2c1CCN(Cc1cccnc1)C2 | 6.66
O=C(c1cncs1)N1CCOCC(Cc2ccccn2)C1 (centres undefined) | 13.94
Cc1ccc(F)cc1C(=O)N1CCN(S(C)(=O)=O)[C@@H](C)C1 | -2.23
c1cnn(Cc2cnc3n2CCN(CC2CCCCC2)C3)c1 | 59

Hello, I would appreciate it if you could give INHIBITION for each entry below.
1. CNc1nc(CNC(=O)Nc2cccc(OC)c2)cs1
2. Cc1cc(N2CCN(Cc3cn(C)nc3C)CC2)cc(C2CCNC2)n1 (centres undefined)
3. CC(=O)N1CCC(c2c(CN(C)C)cnc3cc(C)nn23)CC1
4. Cc1nc(C(C)C)sc1C(=O)N1CCC(N2CCSCC2)CC1

1: 23.5; 2: 18.225; 3: -0.8; 4: 1.86

Give INHIBITION for all compounds that follow.
1. COCc1nc(Cn2c(C)cc(C(F)(F)F)cc2=O)no1
2. COCCOc1ccc(CNc2nc3ccccc3o2)cn1
3. CC(C)S(=O)(=O)N1CCN(C(=O)c2cnn(C)c2Cl)CC1
4. O=c1[nH]nc2nc(N3CCCC3)ccn12
5. CCn1cc(C(=O)Nc2cc(C)ccc2C)cn1
6. COCCOc1cccc(C(=O)N2CCCC(n3ccnc3)C2)c1 (centres undefined)
7. Cn1nccc1-c1ncc2c(c1C(=O)O)CCN(Cc1ccncc1)C2
8. COc1ccc(C)cc1NC(=O)c1coc(C)n1

[32.1, -11.5, 19.845, 19.8, 3.04, 33.7, 20.1, 60.9]

Go through the items and report each one's INHIBITION.
1. c1ccc(-c2cnc(CN3CCCC3Cn3cccn3)o2)cc1 (centres undefined)
2. COCCCN(CCOC)C(=O)Nc1ccc(C)cc1C
3. COCCOc1ccc(CNc2nc3ccccc3nc2N)cn1
4. O=C(NCc1cccnc1)N1CCn2c(Cn3cccn3)cnc2C1

1. 40.9
2. 7.9
3. 80.9
4. 57.9

====

- Tested on: Plasmodium berghei
- assay.procedure: Screen against P. berghei liver stage (PbLuc), transformed with Luciferase, at 10uM
- Type: functional, HepG2
- condition.details: tested at 10 uM
Hit rate of the full screen: of about 69,000 compounds, about 8,600 (12%) showed an effect of 50% or more. Shown is part of a subset that was picked to be rich in strong results.
Would you mind telling me the reported INHIBITION of each entry?
Give bare numbers, in %.

Some solved entries appear below for comparison.
NC(=O)c1ccc(CNC2CC2)cc1 | -30.1
Cc1ncc2c(n1)CN(Cc1nc(C)c(C)o1)CC2 | 38
CNC(C)Cc1ccccc1Sc1ccc(O)cc1 (stereo unspecified) | -2.39
CCCc1nc(N2CCN(Cc3ccccn3)CC2)c2cnn(C)c2n1 | 27.6

Quick one: give me INHIBITION for each item below, same order please.
1. CC(C)CCC(=O)N1CCCC1c1nnc2n1CCCCC2 (stereo unspecified)
2. O=C(Cc1cccnc1)NCCSc1ccccc1F
3. CC(C)=CCC1(C(=O)O)CCCN(c2cc(N)ncn2)C1 (stereo unspecified)
4. CSCCC(=O)N1CCCC1c1nnc2n1CCCCC2 (stereo unspecified)
5. COCC1Cn2nnc(-c3cnn(C)c3)c2CN1Cc1ccc(C)s1 (stereo unspecified)
6. Fc1ccc(Sc2ccccc2CNC2=NCCN2)cc1

26.9
-11.6
46.4
54.3
11.8
83.3

The following molecules each have a reported value; give each one's INHIBITION.
1. Fc1ccccc1Sc1ccccc1CNC1=NCCN1
2. CCCc1nc2c(c(C)c(C)n2Cc2ccncc2)c(N)c1CC
3. c1cc2c(cc1C1(CNC3=NCCN3)CCCC1)OCCO2
4. CC(Cn1cccn1)NC(=O)NCc1cccnc1OC(C)C (stereo unspecified)

75.7
77.9
27.6
11.2

Provide each entry's INHIBITION from the list below.
1. Cc1ncc2c(n1)CN(CC(=O)Nc1nccs1)CC2
2. CCc1cc(NCCc2cccnc2)n2nc(C)c(C)c2n1

[1.78, -1.6]

The following molecules each have a reported value; give each one's INHIBITION.
1. CNC(=O)CCc1cc(C)nc(C2CCCCN2)n1 (stereo unspecified)
2. CC(C)NCc1nc(-c2ccc3c(c2)OCO3)c[nH]1
3. CC(=O)N1CCCC1c1nnc2n1CCCCC2 (stereo unspecified)
4. CC(C)c1nnc2n1CCN(C(C(N)=O)c1ccc(F)cc1)C2 (stereo unspecified)
5. O=C1NCCCCC1Sc1ccccc1F (stereo unspecified)

1. 26.3
2. -40.5
3. -2.37
4. 20
5. 13.6

====

Provide the recorded INHIBITION for the entries that follow.
- System: Plasmodium berghei
- assay.procedure: Screen against P. berghei liver stage (PbLuc), transformed with Luciferase, at 10uM
- Format: functional, HepG2
- condition.details: tested at 10 uM
About 8,600 (12%) of roughly 69,000 compounds showed an effect of 50% or more. This excerpt belongs to a sample that is enriched for strong results.
One number for each entry, in %.

Cc1cc2ncn(C[C@]3(O)CCCN4CCCC[C@@H]43)c2cc1C | 49.4

Parameter requested: INHIBITION. Apply to each item below.
1. CNCC1CCC(c2cc(CN(C)C(=O)c3cnccn3)n(C)n2)CC1 (stereo not given)
2. CN1CCCC[C@@H]2[C@H]1[C@@H](c1ccccc1)CCN2C(=O)c1cnccn1
3. Cc1nc(C(=O)N2CCN(S(=O)(=O)N(C)C)CC2)c(-c2ccccc2)s1
4. CN1CCCC[C@@H]2[C@H]1[C@@H](c1ccccc1)CCN2C(=O)c1ccccn1

[25.8, 46.1, 36.6, 20.8]
